test system: BT-549; test: Cytotoxicity against human BT549 cells after 48 hrs by neutral red assay; assay type: cell-based; conditions: bt-549, 48 h
Residues, ends and D or L forms follow the SMILES beside them. *: point of attachment. Boc = CC(C)(C)OC(=O)*; NHBn = c1ccc(CN*)cc1
assay.metric: Activity

INSERT INTO results (molecule, assay_metric, experimental_result) VALUES
  ('CC(C)(C)OC(=O)N[C@@H](Cc1cnc(C(C)(C)C)[nH]1)C(=O)N[C@@H](Cc1c[nH]c2ccccc12)C(=O)N[C@@H](Cc1cnc(C(C)(C)C)[nH]1)C(=O)NCc1ccccc1', 'Activity', '> 10 µg/mL'),
  ('CC(C)(C)OC(=O)N[C@@H](Cc1cnc[nH]1)C(=O)N[C@@H](Cc1c[nH]c2ccccc12)C(=O)N[C@@H](Cc1cnc[nH]1)C(=O)NCc1ccccc1 (Boc-His-Trp-His-NHBn)', 'Activity', '> 10 µg/mL'),
  ('N[C@@H](Cc1cnc(C23CC4CC(CC(C4)C2)C3)[nH]1)C(=O)N[C@@H](Cc1c[nH]c2ccccc12)C(=O)N[C@@H](Cc1cnc(C23CC4CC(CC(C4)C2)C3)[nH]1)C(=O)NCc1ccccc1', 'Activity', '> 10 µg/mL'),
  ('CC(C)(C)OC(=O)N[C@@H](Cc1cnc(C2CCCCC2)[nH]1)C(=O)N[C@@H](Cc1c[nH]c2ccccc12)C(=O)N[C@@H](Cc1cnc(C2CCCCC2)[nH]1)C(=O)NCc1ccccc1', 'Activity', '> 10 µg/mL'),
  ('CC(C)c1ncc(C[C@H](NC(=O)OC(C)(C)C)C(=O)N[C@@H](Cc2c[nH]c3ccccc23)C(=O)N[C@@H](Cc2cnc(C(C)C)[nH]2)C(=O)NCc2ccccc2)[nH]1', 'Activity', '> 10 µg/mL');
